- TARGET OR TEST SYSTEM: EPHB1 (UniProt P54762)
- Sequence (P54762 whole entry, looked up): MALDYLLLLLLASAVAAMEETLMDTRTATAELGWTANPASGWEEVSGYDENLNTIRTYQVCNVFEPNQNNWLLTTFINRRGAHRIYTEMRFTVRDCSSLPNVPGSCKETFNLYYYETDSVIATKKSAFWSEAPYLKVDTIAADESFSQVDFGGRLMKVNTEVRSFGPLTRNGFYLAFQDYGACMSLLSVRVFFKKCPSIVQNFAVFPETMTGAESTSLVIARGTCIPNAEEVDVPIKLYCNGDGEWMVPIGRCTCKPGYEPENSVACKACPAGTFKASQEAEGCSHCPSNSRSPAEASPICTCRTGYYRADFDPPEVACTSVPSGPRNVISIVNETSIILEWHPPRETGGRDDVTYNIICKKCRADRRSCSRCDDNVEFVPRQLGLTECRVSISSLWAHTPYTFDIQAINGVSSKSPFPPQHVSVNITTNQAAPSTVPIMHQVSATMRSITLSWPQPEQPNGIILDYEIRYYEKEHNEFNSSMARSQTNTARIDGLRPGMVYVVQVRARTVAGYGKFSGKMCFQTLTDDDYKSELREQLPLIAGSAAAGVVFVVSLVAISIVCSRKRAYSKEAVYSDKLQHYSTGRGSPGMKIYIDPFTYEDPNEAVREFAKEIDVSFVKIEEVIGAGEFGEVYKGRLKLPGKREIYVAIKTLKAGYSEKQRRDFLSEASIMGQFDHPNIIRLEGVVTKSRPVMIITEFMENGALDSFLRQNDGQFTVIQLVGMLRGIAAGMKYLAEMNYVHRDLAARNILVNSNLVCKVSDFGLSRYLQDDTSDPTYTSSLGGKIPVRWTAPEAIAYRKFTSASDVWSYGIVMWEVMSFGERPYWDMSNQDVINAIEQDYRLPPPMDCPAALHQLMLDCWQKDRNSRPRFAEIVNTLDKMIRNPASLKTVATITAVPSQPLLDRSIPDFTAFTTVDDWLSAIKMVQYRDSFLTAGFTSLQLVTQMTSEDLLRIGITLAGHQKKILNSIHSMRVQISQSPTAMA
- PROTOCOL TEXT: phosphorylation enrichment, bacterial display (enrichment ratio); higher = better substrate or ligand; peptides without Tyr show the background;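 also: 11-residue human phosphosite peptides and single-mutation variants displayed on the E. coli surface, counted by deep sequencing, each peptide's frequency after selection divided by its frequency in the unselected input library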;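 also: frequency after pTyr selection over input frequency; kinase dosed for 20-30% of maximal phosphorylation in three min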
QUANTITY MEASURED: phosphorylation enrichment
Number, no unit, nothing else.

Known results for sequences:
> print(dat)
                           sequence   target.or.test.system           quantity.measured  value.reported
1  LSSETYVKSFT [F5_Y2149_M2148T_YF]  EPHB1 (UniProt P54762)  phosphorylation enrichment           0.789
2         SRPHLYGTPSR [ADGRE2_Y670]  EPHB1 (UniProt P54762)  phosphorylation enrichment           0.493

Measured phosphorylation enrichment of TIQRMYGCDVG [HLA-A_Y123_I121R] : 0.504

Measured phosphorylation enrichment of QKDTFYGLRSL [IGSF10_Y126] : 0.488

All values here come from the supplement of paper PMC10065799.
